# System: 786-0 renal
# procedure.summary: NCI tumour cell line growth inhibition, 48 h
molecules and their reported GI50
reported.metric: GI50

> print(dat)
                                    molecule  recorded.value
 1  O=[N+]([O-])c1ccc2c(c1)[O][Sn]([I])([I])[O]2        > 100 µM
 2  CCOc1c(Cl)cc(CNC(C)C(O)c2ccccc2)cc1OC (stereo unspecified)         16.1 µM
 3  CN(C)C(=O)O[C@@H]1CN[C@@H](C#Cc2cc3ncnc(Nc4ccc(OCc5cccc(F)c5)c(Cl)c4)c3s2)C1         9.48 µM
 4  COc1ccc(C2CC(n3nnnc3-c3ccccc3)=NN2)cc1 (stereo unspecified)         4.61 µM
 5  CCN(CCNc1ccc(C)c2sc3ccccc3c(=O)c12)CC(C)(C)O         8.31 µM
 6  CC(=O)Nc1ccc(S(=O)(=O)NNC(=O)c2cccnc2Nc2ccc(Cl)cc2)cc1           48 µM
 7  CCN(CC)CCCC(C)Nc1c2ccc(C)cc2nc2ccc(OC)cc12 (stereo unspecified)         2.05 µM
 8  CCC(c1cccc(O)c1)C(CC)c1cccc(O)c1 (stereo unspecified)         5.68 µM
 9  c1cc(CNC2C3CCC(C3)C2c2c[nH]c3ccccc23)cc(CNC2C3CCC(C3)C2c2c[nH]c3ccccc23)c1 (stereo unspecified)         14.2 µM
10  C[C@]12CC[C@@H]3c4ccc(O)cc4C(O)C[C@H]3[C@@H]1CCC2=O (stereo partly specified)        > 100 µM
11  NC(=O)c1ccc(C2C3=C(CCCC3=O)OC3=C2C(=O)c2ccccc2C3=O)cc1 (stereo unspecified)         1.04 µM

###

# Tested on: NCI-H23 lung
# procedure.summary: NCI tumour cell line growth inhibition, 48 h; in the data active = GI50 below about 0.43 µM; inactive = the rest
Outcome codes: YES for active, NO for inactive

> print(dat)
                         chemical.structure  assigned.category
1  Cn1cc(CNCC2CCN(c3ncc(C(=O)NO)cn3)CC2)c2ccccc21                YES
2  CSc1ccc(/C=C2\C=C(CC(=O)NCc3ccc(C(=O)c4ccccc4)cc3)c3cc(F)ccc32)cc1                YES
3  COc1ccc(C(=O)N2c3ccccc3Sc3ccccc32)c(C(F)(F)F)c1                 NO
4    Oc1ccccc1-c1nc2c3ccccc3c3ccccc3c2[nH]1                 NO
5  COC(=O)CCCCCN=Cc1c(O)c(O)c(C(C)C)c2cc(C)c(-c3c(C)cc4c(C(C)C)c(O)c(O)c(C=NCCCCCC(=O)OC)c4c3O)c(O)c12                 NO

###

# Test system: IGROV1 ovarian
# procedure.summary: NCI tumour cell line growth inhibition, 48 h
compounds and their reported TGI
reported.metric: TGI

> print(dat)
                                   compound  reported.metric  recorded.value
1  COC(=O)C1=C(CS(=O)c2ccccc2[N+](=O)[O-])ON(C)C1c1ccccc1 (stereo not drawn)              TGI        > 100 µM
2  COc1ccccc1Nc1nc(NNC(=O)Cc2ccccc2)nc(NNC(=O)c2ccncc2)n1              TGI         > 10 µM
3  Cc1c2ccc(N(C)c3ccnc(Nc4cccc(S(N)(=O)=O)c4)n3)cc2nn1C              TGI         > 25 µM

###

# System: M14 melanoma
# procedure.summary: NCI tumour cell line growth inhibition, 48 h
molecules and their reported TGI
reported.metric: TGI

> print(dat)
                                    molecule  reported.metric  recorded.value
 1                     c1ccc2c(c1)nc1n2CCSC1              TGI        > 100 µM
 2           Nc1cc(N2CCCC2)nc(=O)n1Cc1ccccc1              TGI        > 100 µM
 3  COC(=O)[C@@H]1C[C@@]2(C3C=CN(C(=O)C(F)(F)F)C=C3)c3ccccc3N(C(=O)C(F)(F)F)[C@H]2N1C(=O)OC              TGI        > 100 µM
 4  COc1cc(/C=N/Nc2nnc3c4ccccc4c4ncccc4c3n2)cc(OC)c1OC              TGI         > 10 µM
 5       COc1ccc(CN2c3ccccc3CCc3ccccc32)cc1F              TGI        > 100 µM
 6  CCN(CC)CCCC(C)Nc1c2ccc(C)cc2nc2ccc(OC)cc12 (stereo not drawn)              TGI         3.18 µM
 7  CCOC(=O)c1cc(/C=C/C(C)=C/C(=O)OC)n(C)c1C              TGI        > 100 µM
 8  O=C1Nc2cccc3cc(NCC(O)CCl)cc1c23 (stereo not drawn)              TGI        > 100 µM
 9  Cc1cc(-c2nnc3n2CCCCC3)c(C)n1-c1ccc(Cl)c(Cl)c1              TGI         33.5 µM
10  [N-]=[N+]=Nc1ccc(CNc2cc(=O)[nH]c(=O)[nH]2)cc1              TGI        > 100 µM
11                      O=Cc1ccc(-c2cccs2)s1              TGI        > 100 µM
12  COc1ccc(Cl)cc1Nc1nc(C(F)(F)F)ccc1C(=O)N/N=C/c1cc(OC)c(OC)c(OC)c1              TGI         3.93 µM
13  COc1cc(S(C)(=O)=O)ccc1Nc1nc2ccc(-c3ccc(NC(=O)[C@H](C)c4ccc(F)cc4)cc3)cn2n1              TGI        > 100 µM
14    COc1cc(Cn2c(-c3nonc3N)nc3ccccc32)ccc1C              TGI         34.8 µM
15            O=C1c2ccccc2-n2c1nc1ccccc1c2=O              TGI         11.1 µM
16  O=S1(=O)c2ccccc2NC(=S)CC1c1ccccc1 (stereo not drawn)              TGI        > 100 µM
17             Cn1cnc2c(sc3nc4ccccc4n32)c1=N              TGI        > 100 µM
18  NC(N)=NS(=O)(=O)c1ccc(NC(=O)c2ccc3nc4ccccc4c(Nc4ccc(S(N)(=O)=O)cc4)c3c2)cc1              TGI        > 100 µM

###

compounds and their reported GI50
# Test system: SN12C renal
# procedure.summary: NCI tumour cell line growth inhibition, 48 h
reported.metric: GI50

> print(dat)
                                    compound  recorded.value
 1  CCN(CC)CCCC(C)Nc1c2ccc(C)cc2nc2ccc(OC)cc12 (stereo unspecified)         3.12 µM
 2  NC(=O)c1ccc(C2C3=C(CCCC3=O)OC3=C2C(=O)c2ccccc2C3=O)cc1 (stereo unspecified)         0.32 µM
 3  CC[C@@]1(O)C(=O)OCc2c1cc1n(c2=O)Cc2cc3cc(N)ccc3nc2-1       0.0142 µM
 4    Oc1ccccc1-c1nc2c3ccccc3c3ccccc3c2[nH]1         10.7 µM
 5  N.N.N.N.N.N.O=N[O-].[Br-].[Co+3].[Co+3].[OH3+].[OH3+]        > 100 µM
 6  FCc1ncc(-c2ccc(C(F)(F)F)cc2)c(NC2CCCCCC2)n1         > 10 µM
 7    O=C1CC(=O)OC(c2ccc([N+](=O)[O-])cc2)O1         1.94 µM
 8  CCN(CCNc1ccc(C)c2sc3ccccc3c(=O)c12)CC(C)(C)O         13.2 µM
 9  Cn1cc(CNCC2CCN(c3ncc(C(=O)NO)cn3)CC2)c2ccccc21       0.0344 µM
10  CC(C)(C)NC(=O)[C@H]1C[C@H]2CCCC[C@H]2CN1C[C@@H](O)[C@H](Cc1ccccc1)NC(=O)[C@H](CC(N)=O)NC(=O)c1ccc2ccccc2n1         13.9 µM
11  COc1ccc(C2CC(n3nnnc3-c3ccccc3)=NN2)cc1 (stereo unspecified)         12.7 µM

###

# Test system: HOP-92 NSCLC
# procedure.summary: NCI tumour cell line growth inhibition, 48 h
reported.metric: TGI (µM)

> print(dat)
                                   compound  endpoint.unit  censoring.qualifier  recorded.value
1  CCN(CCNc1ccc(C)c2sc3ccccc3c(=O)c12)CC(C)(C)O             µM                    =            20.5
2  CCCCCCN(CCCCCC)CC(O)c1ccc2c3c(cccc13)CC2 (centres undefined)             µM                    =            9.27
3  CC(C)(C)NC(=O)[C@H]1C[C@H]2CCCC[C@H]2CN1C[C@@H](O)[C@H](Cc1ccccc1)NC(=O)[C@H](CC(N)=O)NC(=O)c1ccc2ccccc2n1             µM                    =              20
4  COc1cc(C2S/C(=C/c3ccccc3)C(=O)N2c2ccc(Cl)c(Cl)c2)cc(OC)c1OC (centres undefined)             µM                    >            84.2
5                 O=[N+]([O-])c1nccn1COCCBr             µM                    >             100
6  C=C1C(=O)OC2/C=C(\C=O)CC/C=C(\C)C(O)C[C@@H]12 (some centres undefined)             µM                    =            17.2
7  N#C[C@@H]1C(n2ccc(N)nc2=O)O[C@H](CO)[C@H]1O (some centres undefined)             µM                    >             100
8            O=C1c2ccccc2-n2c1nc1ccccc1c2=O             µM                    >             100
9  BrC1(Br)C2/C=C\CCCCC21 (centres undefined)             µM                    >             100
